biological target: UniProtKB Q8WYN0
Sequence (Q8WYN0 whole entry): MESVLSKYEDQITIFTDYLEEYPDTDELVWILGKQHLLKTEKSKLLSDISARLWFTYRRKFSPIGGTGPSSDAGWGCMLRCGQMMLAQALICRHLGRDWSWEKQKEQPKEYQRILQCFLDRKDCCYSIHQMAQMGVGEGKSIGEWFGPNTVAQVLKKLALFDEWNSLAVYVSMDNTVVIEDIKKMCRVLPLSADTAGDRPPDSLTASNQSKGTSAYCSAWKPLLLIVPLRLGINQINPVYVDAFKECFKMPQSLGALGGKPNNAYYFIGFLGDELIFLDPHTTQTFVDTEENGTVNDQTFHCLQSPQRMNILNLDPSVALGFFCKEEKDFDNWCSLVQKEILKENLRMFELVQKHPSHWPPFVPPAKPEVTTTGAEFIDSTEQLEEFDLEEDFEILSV
QUANTITY_NAME: pIC50
pIC50 here: minus log base 10 of the concentration, concentration in moles per litre.

Prompt line: Query (compound): Clc1ccc(C(Cn2ccnc2)OCc2ccsc2Cl)c(Cl)c1 (stereo not shown) ; field requested: pIC50
Response line: 5.89

----------
Target: ATG4B (Homo sapiens)
Sequence (Q9Y4P1 1-393): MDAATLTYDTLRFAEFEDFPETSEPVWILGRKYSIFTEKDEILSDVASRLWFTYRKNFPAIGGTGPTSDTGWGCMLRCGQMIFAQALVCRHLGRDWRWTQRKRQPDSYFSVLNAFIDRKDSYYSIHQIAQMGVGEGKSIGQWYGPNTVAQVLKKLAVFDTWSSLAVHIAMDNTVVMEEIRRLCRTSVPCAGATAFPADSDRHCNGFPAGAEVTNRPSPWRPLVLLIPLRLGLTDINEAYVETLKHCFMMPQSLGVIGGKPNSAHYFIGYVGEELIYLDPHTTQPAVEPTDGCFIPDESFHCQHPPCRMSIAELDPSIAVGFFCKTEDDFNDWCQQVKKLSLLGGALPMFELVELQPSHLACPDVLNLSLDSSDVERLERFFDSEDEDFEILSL
QUANTITY_NAME: IC50

Prompt line: Short answer please: IC50, ATG4B (Homo sapiens), entry Clc1ccc(C(Cn2ccnc2)OCc2ccsc2Cl)c(Cl)c1 (stereo not shown)
Response line: 1800 nM
